# apparent KD of MS2 coat protein annotations
# Tested on: MS2 coat protein
# METHOD_DESCRIPTION: apparent KD of MS2 coat protein; higher = weaker reporter binding
# STATED_CONDITIONS: Eterna round: R107; input ligand: theophylline 20 uM

# CONSTRUCT_SEQUENCE, apparent KD of MS2 coat protein, nM
measured = [
    ("ACGUAAUGCAGAAGGAGCGUCUUUUUAAAACAUGAGGAUCACCCAUGUAAUAUUUAUGGGAGACAGGUAGGUCGCUGAAGUACGA [JR_SSArginiB_Sub006]", 32.3),
    ("GGUUGGUGUAGAGAUAUAUUGAUUACUGAAGGAGCGGGAAGAAACCCAGGUAGGUCGCAGAGAUCCACAUGAGGAUCACCCAUGU [!0.L]", 49.5),
    ("ACGUUGUAGUCGGCCGCCACUGUUUUCAUGUUCAACAUGAGGAUCACCCAUGUACCUUUUUUUAUCAGGACCGGGACGUAUUCGA [JR_SSTryptoB_Sub003]", 102),
    ("UGUAUGUGAUCUGAUACCAGUCCAACUGGUAAAGCAUGAGGAUCACCCAUGCAAAAUUGGGACCCUUGGCAGCAGAUCGCAUACU", 213),
    ("GGGUGCGGGAUAGAUACCAGUGCCUUAAAAUAGGCACAUGAGGAUCACCCAUGUACCGGGCGCCCUUGGCAGCUAGUACCAUCCA [Edanrele]", 190),
    ("GCCAUCGGCGGAAGCCGAUGGUAUACAGAAGGAGCGUAGGAAACUACAGGUAGGUCGCUGGACAUGAGGAUCACCCAUGUAAUAG [#27 Same State - Arginine A]", 26.7),
    ("AAUGGUGGAACGAAGUACAGGAGUACAAAUCGAGGACCGGUACGGCCGCCACUCGCGAAAGAACAUGAGGAUCACCCAUGUAAAA [theeternabot_exclusion_MS2_Trp_A_34]", 21.8),
    ("GGACUAACUCGAAGGAGCGACGCGCAGAAACUGCAAUUUCCUCCACACGAGGAUCACCCGUGUCAGGUAGGUCGCGAGUUAGUCG [ArgBX 29]", 18.6),
    ("UGUAUGGGAACAUGAGGAUCACCCAUGUGGCGAGGACCGGUACGGCCGCCACUCGAGCAGCAAGCGUGUAUGACGCUGCUGCAUG [ss-trypA-0mod]", 377),
    ("ACACCGAAAGGUGCAUUUUCCUUUUCAGAUACCAGACUUUACGUUGUCCCUUGGCAGCUGUAUCACAUGAGGAUCACCCAUGUUG [JR_SSTheophyA_Sub012]", 21.4),
    ("UCGUUUGAGGCGGCCGCCACUGGUCUCAUGGUCAACAUGAGGAUCACCCAUGUAUCUUUGCCAAGCAGGACCGGGCCUCGAGCGA [#20 Exclusion Tryptophan B]", 41.4),
    ("ACAGGAAACGGAAGGAGCGGAAUUGCAACAUGAGGAUCACCCAUGUUGAUCGUGAGUUGCUUCCAGGUAGGUCGCCGUUACCUAA [Erorve]", 39.4),
    ("GACGAGUAGACGGCCGCCACUAUGCUGCGCAGCCCUAGAAACGCACAUGAGGAUCACCCAUGUCUUAGGACCGGGUCGAACUUAA [theeternabot_sameState_MS2_Trp_B_48]", 107),
    ("GGACUAACCAGAAGGAGCGACACGCAGAAACUGCUAUUUCCUCCGCACGAGGAUCACCCGUGUCAGGUAGGUCGCUGGUUAGUCG [ArgBX 28]", 25.4),
    ("GGACUAACCAGAAGGAGCGGCGCGCAGAAACUGCAAAAUCCUCCGCACGAGGAUCACCCGUGUCAGGUAGGUCGCUGGUUAGUCG [ArgBX 28]", 16.2),
    ("GGCUAGGUCUCGGCCGCCACUGCUACAUGAGGAUCACCCAUGUACCUGGGCGGUCGCUCCCUCGGCAGGACCGGGAGACAUUCGU [Onarbeisan]", 13.8),
    ("ACACAUGAGGAUCACCCAUGUCCAAUAGAUACCAGUGAUACAGUGCACCCUUGGCAGCUGUUACUGAGUAAUGGUUCCCUCGGAA [Same State Theophylline A GF2]", 48.6),
    ("GGUCUGUGGAGCGAUACCAGCUUGAGUGUACUGGCCAGGUACAUGAGGAUCACCCAUGUAAGCCCUUGGCAGCGCUCCAGAGACC [#1 Exclusion - Theophylline B Attempt #17 (HarryS)]", 13.8),
    ("AAACGUUGCUGCGAUACCAGACAUGAGGAUCACCCAUGUACCAAGGUAACCGAAAGGCAUGUCCCUUGGCAGCGCAGCAACGAAA [MAT - Exclusion Theophlline B - Mod of Eli - D17]", 18.9),
    ("AAUAAUAAGGCGGCCGCCACUAAACAUGAGGAUCACCCAUGUCUCGAGCGCAUGCAUAAGGGAUGUAGGACCGGGCCAAUAAUAA [Exclusion - Tryptophan B (Freestyle 2)]", 32.6),
    ("AGUUAAAUAUGUUAAUAACUAUUUACUGAAGGAGCGUGUUUUUACACAGGUAGGUCGCAGUGACAUGAGGAUCACCCAUGUAGUA [JR_SSArginiA_Sub012]", 49.7),
    ("AGCGAUAUGCAUGAUACCAGCUACAUGAGGAUCACCCAUGUGCGUCAGAAAUGACUGUGUAGCCCUUGGCAGCAUAAAGCAUGUA [Exclusion - Theophylline B (Freestyle 10)]", 50.7),
    ("GCACCAGGUACGGAUACCAGCUAUAGGCCCAAUGGGCGACAUGAGGAUCACCCAUGUGAUGGCCCUUGGCAGCUGUACCUGGUGC [SSThB NP+V+V2 #9]", 193),
]

* * *

# Test system: K4 kissing-loop RNA reporter;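 also: bound reporter read as fluorescence of individual clusters on recovered sequencing chips by microscopy, with normalized cluster intensities fitted with a binding model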
# METHOD_DESCRIPTION: apparent KD of K4 kissing-loop reporter; higher = weaker reporter binding
# STATED_CONDITIONS: Eterna round: R107; input ligand: theophylline 20 uM
RECORDED_METRIC: apparent KD of K4 kissing-loop reporter (nM)

# CONSTRUCT_SEQUENCE, TARGET_OF_ASSAY, UNIT_INFO, EXPERIMENTAL_VALUE
data = [
    ("UGUCAUUGGUCGGCCGCCACUUCGUGUGGAGUGAUGUUUUGUAGAUUGUGUUGAAAGGUAUGGUGAAGGACCGGGACCGAUGACU [FiskerMod 21 - Jieux - Same State - Tryptophan B]", "K4 kissing-loop RNA reporter", "nM", 242),
    ("AGUAGUCGACAAGGAUAUACUAGGAGAGACGUUUGCACAUAACCUGCCCUACGAAGUGAUGUUUCGGUAGAAGGUGUUGGGCUGU [theeternabot_exclusion_KL_FMN_B_34]", "K4 kissing-loop RNA reporter", "nM", 82.9),
    ("CAUUCGAAAUGCAGUGAUGUUGCAACCGAUACCAGUAUCGAAAGAUACCCUUGGCAGCGGAAAACCGCUACGUAUUUUUUGAAUG [Ex Theophylline A K4 26]", "K4 kissing-loop RNA reporter", "nM", 243),
    ("GUAGGAUGAGGAGGAGGAUGAAUUACUGAAGGAGCGCAGAGAAAUGCAGGUAGGUCGCGGUAAAGAAGUAUAGUGAUGUUAUAUC [#09 K4 Arginine A Same State]", "K4 kissing-loop RNA reporter", "nM", 526),
    ("GUAGAUAGGCUACAUCUCUAGUCUAUAGACUAGGAUAUCAGGAAACUGAGAAGGAGUCUCAUUGGAGUGAUGUUCCAAGAAUAAU [KL-SSFMN-A15]", "K4 kissing-loop RNA reporter", "nM", 133),
    ("UAAUAAAUUCCAGCGAUAUCGCUCUUCGAAGGAGCGGGCGAAAGUCCAGGUAGGUCGCGGAGAGUGAUGUUCUUUGCGGCGCUGG [whbob_Ex_Arginine_A_2t134]", "K4 kissing-loop RNA reporter", "nM", 407),
    ("GGACGACAGUCGGCCGCCACUCACAGCCGCCAGUGAUGUUGGAUUGUAGCGGAGUGAUGUUUCGCGAGGACCGGGACUGCAGUCC [Same State Tryptophan B GF 15]", "K4 kissing-loop RNA reporter", "nM", 413),
    ("CCAUCGCUAUUCGAUACCAGUCAAGAGGUCUUUGGCCUCUUAAUGGAGUGAUGUUCCUUAGACCCUUGGCAGCGAAUAGUGAUGG [Theophylline B K4 13]", "K4 kissing-loop RNA reporter", "nM", 340),
    ("AGUCCACUCUAAAGAGUGGACCUAAGGGAUACCAGUGAUGUUGGUCACCCUUGGCAGCCCACUGUCAUCGAUAAAGAUGGCAGAA", "K4 kissing-loop RNA reporter", "nM", 122),
    ("GGAGGCCAGGCCUGCGAAGUGAUGUUUUGACGAGGACCGGUACGGCCGCCACUCGAAUGUUCUAUCAUCGUACGAACUUCUGCGU [theeternabot_exclusion_KL_Trp_A_26]", "K4 kissing-loop RNA reporter", "nM", 527),
    ("CCUAGUGAUGUUAGGUCGUGCUCCUAUGAUACCAGCGUAGUCACUCGCCCUUGGCAGCAUUCCUUAUAAGGCGGUCGGGCGCGGU [theeternabot_sameState_KL_Theo_A_34]", "K4 kissing-loop RNA reporter", "nM", 158),
    ("GGUAGCGCCAGAGAUACCAGUCAUAUCGCUCUGGAGUGAUGUUCCGGAACGUGCGGAGAAGACCCUUGGCAGCUCAUGACGGUAU [Exclusion Theophylline B GF 3]", "K4 kissing-loop RNA reporter", "nM", 227),
    ("UCGAACGAUGGAAGGAGCGCUCGUCAGUCCUGCGAGUGAUGUUCGUGGGUAAAUAGUCGCGAGCAGGUAGGUCGCCAUCUUGAGC [Indiermaar]", "K4 kissing-loop RNA reporter", "nM", 128),
    ("GAAAGAAAGAAUGAUACCAGACACCCGAGUGAUGUUCGGAGCAGAGUGAUGUUCUAAUAAGUCCCUUGGCAGCAUAAAAGAAAAG [Same State Theophylline B GF 1]", "K4 kissing-loop RNA reporter", "nM", 331),
    ("GGGAGUUAUUACGGCAGGGUCGAUACGGAUACCAGUAGGCGGCUCUACCCUUGGCAGCCGUAACAUGGUAGUGAUGUUAUCAGUC [theeternabot_exclusion_KL_Theo_A_24]", "K4 kissing-loop RNA reporter", "nM", 468),
    ("UGACUACAAAAGGAAUAAUCCUAGUGAUGUUAGGAUAUGCUGAUAAGCAGAAGGAACGGAGAUCGAAAGAUCUCAUAUGUAGUCU [whbob_Ex_FMNA__2th192]", "K4 kissing-loop RNA reporter", "nM", 98.5),
    ("AAAUAACAGGCAGGAUAUGCUUAGUAAUAAGGCCAUAUAUACGUAUAGAGUGAUGUUUUGUACAAAGCAGAAGGGCUAAAUCCAU [FMN B Excl V1]", "K4 kissing-loop RNA reporter", "nM", 105),
    ("AACUCUCAGACACUUGAGUGAUGUUCGGGCCGAGGACCGGUACGGCCGCCACUCGGGUCUGAGAGAGGUUAUCAAAGAUAGCCAA [Omei KL Tryp A SS A v9]", "K4 kissing-loop RNA reporter", "nM", 141),
    ("AUAUCUAGAGUGAUGUUCUAGUAAGCUGAAGGAGCGGACGAAAGUCCAGGUAGGUCGCAGUGUUUUUACACCUCAUGUGUAGGAG [KL-SSArg-A7 #analogue]", "K4 kissing-loop RNA reporter", "nM", 163),
    ("GCAUAGGCCCAUCGGAAUUCGAGACCAGCACGAGGACCGGUACGGCCGCCACUCGUGCAGUGAUGUUGCACGAUUGGGAAACCGC [Beanveceti]", "K4 kissing-loop RNA reporter", "nM", 104),
    ("AUUAAUUUCAGAGGAUAUGCUUUAUUAUUAUUUUUAAAUAAUAAAUGCAGUGAUGUUGCUUAUUAUGCAGAAGGCUGAUUUAUAA [JR_SSFMNB_Sub014]", "K4 kissing-loop RNA reporter", "nM", 586),
    ("AACUCUCAGGCACCUGAGUGAUGUUCAGGCCGAGGACCGGUACGGCCGCCACUCGGGCCUGAGAGAGGUUAUCAAAGAUAGCCAA [Omei KL Tryp A SS A v2]", "K4 kissing-loop RNA reporter", "nM", 277),
]
